These molecules were tested on UniProtKB Q13547; IC50 is the recorded read-out.
Sequence (Q13547 whole entry): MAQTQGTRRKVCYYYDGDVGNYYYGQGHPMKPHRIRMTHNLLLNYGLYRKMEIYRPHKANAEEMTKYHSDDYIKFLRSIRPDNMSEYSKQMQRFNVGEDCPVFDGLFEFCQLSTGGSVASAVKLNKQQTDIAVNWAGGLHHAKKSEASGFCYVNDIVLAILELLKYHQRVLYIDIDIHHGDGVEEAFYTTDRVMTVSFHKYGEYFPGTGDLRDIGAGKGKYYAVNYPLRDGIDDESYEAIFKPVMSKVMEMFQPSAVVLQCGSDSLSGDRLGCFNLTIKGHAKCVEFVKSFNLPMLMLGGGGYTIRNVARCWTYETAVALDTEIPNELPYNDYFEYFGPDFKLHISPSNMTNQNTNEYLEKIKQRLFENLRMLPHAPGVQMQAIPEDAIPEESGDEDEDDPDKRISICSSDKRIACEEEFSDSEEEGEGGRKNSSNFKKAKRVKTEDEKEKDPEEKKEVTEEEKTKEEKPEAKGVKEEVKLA

Problem: Consider the molecule shown here: `COCCOc1ccc(/C=C/C(=O)NO)c(Oc2ccc(Cl)c(Cl)c2)c1` What is its recorded IC50?
Solution: > 10 µM

Problem: Consider the molecule shown here: `O=C(/C=C/c1ccc(OCCN2CCOCC2)cc1Oc1cccc(Cl)c1)NO` What is its recorded IC50?
Solution: 1 to 10 µM

Problem: Consider the molecule shown here: `Cc1ccc(Oc2ccccc2/C=C/C(=O)NO)cc1` What is its recorded IC50?
Solution: 1 to 10 µM

Problem: Consider the molecule shown here: `CC(=O)Nc1ccc(Oc2cccc(Cl)c2)c(/C=C/C(=O)NO)c1` What is its recorded IC50?
Solution: > 10 µM

Problem: Consider the molecule shown here: `COc1ccc(Oc2ccccc2/C=C/C(=O)NO)cc1` What is its recorded IC50?
Solution: 1 to 10 µM

Problem: Consider the molecule shown here: `COc1cccc(Oc2ccccc2/C=C/C(=O)NO)c1` What is its recorded IC50?
Solution: 1 to 10 µM

Problem: Consider the molecule shown here: `O=C(/C=C/c1ccccc1Oc1ccc(F)cc1)NO` What is its recorded IC50?
Solution: 1 to 10 µM

Problem: Consider the molecule shown here: `Cc1cccc(Oc2ccccc2/C=C/C(=O)NO)c1` What is its recorded IC50?
Solution: 1 to 10 µM

Problem: Consider the molecule shown here: `O=C(/C=C/c1cc(NCc2cccnc2)ccc1Oc1ccc(F)cc1)NO` What is its recorded IC50?
Solution: > 10 µM

Problem: Consider the molecule shown here: `O=C(/C=C/c1ccccc1Oc1ccc(Cl)cc1)NO` What is its recorded IC50?
Solution: 1 to 10 µM

====

Test system: Jurkat cells
test_summary: Cell proliferation assay, growth inhibition by Alamar Blue
Type: cell-based
assay_conditions: Homo sapiens, 72 h, treated with compound for 3 days
Assignment: determine reported GI50 for the given compounds.
The answer is to be given in nM; state only the numeric part.

Problem: GET /values?readout=GI50&system=Jurkat cells&item= O=C(/C=C/c1ccccc1Oc1cccc(Cl)c1)NO [Compound 11]
Solution: 1980

Problem: GET /values?readout=GI50&system=Jurkat cells&item= COc1ccc(Oc2ccccc2/C=C/C(=O)NO)cc1 [Compound 10]
Solution: 2250

Problem: GET /values?readout=GI50&system=Jurkat cells&item= O=C(/C=C/c1ccccc1Oc1ccc(F)cc1)NO [Compound 9]
Solution: 2000

Problem: GET /values?readout=GI50&system=Jurkat cells&item= O=C(/C=C/c1ccccc1Oc1cccc(F)c1)NO [Compound 14]
Solution: 3580

Problem: GET /values?readout=GI50&system=Jurkat cells&item= COc1cccc(Oc2ccccc2/C=C/C(=O)NO)c1 [Compound 15]
Solution: 3370

Problem: GET /values?readout=GI50&system=Jurkat cells&item= O=C(/C=C/c1ccccc1Oc1ccc(Cl)cc1)NO [Compound 6]
Solution: 1430

Problem: GET /values?readout=GI50&system=Jurkat cells&item= O=C(/C=C/c1ccccc1OC1CCN(C(=O)c2ccccc2)CC1)NO [Compound 20]
Solution: 9700

Problem: GET /values?readout=GI50&system=Jurkat cells&item= O=C(/C=C/c1ccccc1Oc1ccc(Cl)c(Cl)c1)NO [Compound 12]
Solution: 1800

Problem: GET /values?readout=GI50&system=Jurkat cells&item= Cc1ccc(Oc2ccccc2/C=C/C(=O)NO)cc1 [Compound 8]
Solution: 6100

Problem: GET /values?readout=GI50&system=Jurkat cells&item= Cc1cccc(Oc2ccccc2/C=C/C(=O)NO)c1 [Compound 13]
Solution: 2500
